DC50 reference
# assayed_system: BRD9 (Homo sapiens)
# Sequence (Q9H8M2 whole entry): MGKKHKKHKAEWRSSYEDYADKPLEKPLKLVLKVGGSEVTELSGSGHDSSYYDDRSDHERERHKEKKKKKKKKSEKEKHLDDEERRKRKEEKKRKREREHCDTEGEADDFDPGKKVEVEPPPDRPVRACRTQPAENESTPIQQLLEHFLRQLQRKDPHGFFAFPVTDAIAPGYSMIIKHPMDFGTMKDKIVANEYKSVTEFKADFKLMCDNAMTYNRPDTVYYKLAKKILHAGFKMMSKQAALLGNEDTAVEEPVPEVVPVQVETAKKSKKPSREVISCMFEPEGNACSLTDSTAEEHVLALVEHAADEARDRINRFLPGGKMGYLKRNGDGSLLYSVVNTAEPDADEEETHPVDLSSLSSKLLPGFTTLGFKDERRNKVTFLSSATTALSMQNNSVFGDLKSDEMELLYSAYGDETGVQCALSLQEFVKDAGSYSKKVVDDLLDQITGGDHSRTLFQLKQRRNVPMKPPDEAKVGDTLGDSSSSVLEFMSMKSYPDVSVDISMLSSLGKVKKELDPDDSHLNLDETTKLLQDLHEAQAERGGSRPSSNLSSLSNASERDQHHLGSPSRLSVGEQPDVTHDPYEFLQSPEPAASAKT
# method_notes: BRD9 degradation, HiBiT-BRD9 KI HEK293 (LgBiT) cells, NanoGlo Lytic Endpoint assay (Assay Protocol 1)
# Type: cell-based
# experimental_context: Table 2; BRD9 degradation, Assay Protocol 1; 6 h of treatment; read-out: Assay 1 DC50
# Experimental: HiBiT-BRD9 KI HEK293 (LgBiT) Cells (Promega CS3023412) were seeded at 8000 cells per well (38 μL) in sterile white bottom 384 well plates (Invitrogen 164610 or Greiner 781080) and incubated overnight at 37° C. with 5% CO2. The next day, compounds were prepared at 1000× final concentration in DMSO and diluted 1:100 in media (DMEM PAN Biotech P04-03550+10% FBS ATCC 302025). […]

// worked examples, DC50 included
[[record]]
molecule = "COc1cc(-c2cn(C)c(=O)c(C)c2C)cc(OC)c1CN1CCN(Cc2cccc3c2CCN(C(=O)/C(C#N)=C/C(C)(C)C)C3C)CC1 (mixture of isomers)"
assayed_system = "BRD9 (Homo sapiens)"
result = "1.25 to 10 nM"

[[record]]
molecule = "COc1cc(-c2cn(C)c(=O)c(C)c2C)cc(OC)c1CN1CC2CC1CN2Cc1cccc2c1CCN(C(=O)/C(C#N)=C/c1cccc(Br)n1)C2C (mixture of isomers)"
assayed_system = "BRD9 (Homo sapiens)"
result = "1.25 to 10 nM"

[[record]]
molecule = "COc1cc(-c2cn(C)c(=O)c(C)c2C)cc(OC)c1CN1CCN(Cc2cccc3c2CCN(C(=O)/C(C#N)=C/C2CCC2)C3C)CC1 (mixture of isomers)"
assayed_system = "BRD9 (Homo sapiens)"
result = "1.25 to 10 nM"


Q: Give the reported value of DC50 for this record: COc1cc(-c2cn(C)c(=O)c(C)c2C)cc(OC)c1CN1CCN(Cc2cccc3c2CCN(C(=O)/C(C#N)=C/c2ncc(C)s2)C3C)CC1 (mixture of isomers)
A: 1.25 to 10 nM

Q: Assign DC50 to the following record: COc1cc(-c2cn(C)c(=O)c3cnccc23)cc(OC)c1CN1CCN(Cc2cccc3c2CCN(C(=O)/C(C#N)=C/C2(C)COC2)C3C)CC1 (mixture of isomers)
A: 1.25 to 10 nM
